test.details: inhibitors of TNFa-induced NFkB p65 translocation, primary screen, imaging, HUVEC, MLSMR starter and 10KST1 sets (AID 438);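 further: compound added about 3h40 before a 20 min TNFalpha stimulation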;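 on inhibition: signal is the nuclear over cytoplasmic p65 intensity ratio per well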
condition.label: HUVEC TNFa-induced p65 nuclear translocation; at 2 µM, stronger effect = higher value, 0% TNFa-plus-vehicle, 100% no-TNFa wells
measured.quantity: inhibition (%)
Answers are plain numbers, in %.

# example entries with known answers
>  <compound>
O=C(NCCN1CCCCCC1)c1ccc(CS(=O)(=O)c2ccc(Br)cc2)o1

>  <scale.unit>
%

>  <inhibition>
-0.5

$$$$
>  <compound>
CCOc1ccc(N2CC(C(=O)Nc3ccccc3OC)CC2=O)cc1 (stereo not drawn)

>  <scale.unit>
%

>  <inhibition>
-3.4

$$$$
>  <compound>
COc1ccc(-n2c(Cc3cccn3C)nnc2SCC(N)=O)cc1

>  <scale.unit>
%

>  <inhibition>
-4.4

$$$$
>  <compound>
Cn1cccc1Cc1nnc(SCC(=O)NCc2ccc(F)cc2)n1-c1ccc(F)cc1

>  <scale.unit>
%

>  <inhibition>
-7.4

$$$$
>  <compound>
Cc1ccc(S(=O)(=O)N2CCOCC(=O)NCCOCCNC(=O)COCC2)cc1

>  <scale.unit>
%

>  <inhibition>
2.1

$$$$
>  <compound>
CC(C)(C)C(=O)CCN1C(=O)C2(OCCO2)c2ccccc21

>  <scale.unit>
%

>  <inhibition>
-4.9

$$$$
>  <compound>
COc1ccc(C)cc1S(=O)(=O)N1CCN(S(=O)(=O)c2cc(C)ccc2OC)CC1

>  <scale.unit>
%

>  <inhibition>
-0.2

$$$$
>  <compound>
Fc1ccc(Cn2nnc(-c3ccc(CN4CCOCC4)cc3)n2)cc1

>  <scale.unit>
%

>  <inhibition>
4.3

$$$$

Lab note: each compound below needs its inhibition filled in.
1. CCCN(Cc1cc2cc(C)ccc2[nH]c1=O)C(=O)c1cccc(OC)c1
2. CCOc1ccc(OCCCCN(C)C)cc1
3. C=CCN1C(=O)C2(c3ccccc31)C1CCCC=C1C(C#N)=C(N)C2(C#N)C#N (stereo not drawn)
4. COc1ccc2ccccc2c1CN1CCN(C)CC1
5. Cc1nc(SCCC(=O)O)c2ccccc2n1
6. O=C(CSc1nnnn1-c1ccccc1)c1cc2ccccc2oc1=O
7. C[C@@H]1C[C@H](O)c2cc(Cl)ccc2N1

8.2
1.8
-19.9
-7.1
-2.5
-8.3
-7.2

====

test.details: blockers of RIG-like receptor reporter activation – cell-based, Sendai virus stimulus, luciferase, 10K MLSCN set, TLR/RLR signaling modifier project, primary screen (AID 602276);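 further: firefly luciferase from ISG56 promoter only with Renilla not read in this screen; 0% = Sendai virus plus DMSO and 100% = medium plus DMSO without virus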
condition.label: HEK293 RL24 IRF3 luciferase reporter, at 10 µM, stronger effect = higher value
For each of the molecules below, state its inhibition.
Give bare numbers, in %.

# example entries with known answers
>  <molecule>
CCc1nnc(NC(=O)c2ccc(COc3ccc(C)cc3)o2)s1

>  <recorded.number>
-17.4

$$$$
>  <molecule>
CCn1c(=N)n(CC(O)c2ccco2)c2ccccc21 (configuration not stated)

>  <recorded.number>
10.3

$$$$
>  <molecule>
N#CC1=C(N)S[C@H](C(=O)C23CC4CC(CC(C4)C2)C3)[C@H]1c1ccncc1

>  <recorded.number>
11.9

$$$$
>  <molecule>
CC(=O)n1cc(-c2ccncc2)c2ccccc21

>  <recorded.number>
-5.39

$$$$
>  <molecule>
Cc1nc(-c2cccc(N)c2)cs1

>  <recorded.number>
-3.62

$$$$
>  <molecule>
Cc1nnc(SCc2cc(=O)[nH]c(N3CCCCC3)n2)s1

>  <recorded.number>
13.1

$$$$
>  <molecule>
Cc1ccc2c(c1)C1CCCC3C1N2CC(=O)N3Cc1ccccc1 (configuration not stated)

>  <recorded.number>
7.59

$$$$
>  <molecule>
O=C(c1cnn2c(C(F)F)cc(C3CC3)nc12)N1CCOCC1

>  <recorded.number>
6.43

$$$$
>  <molecule>
Cc1cccc(N2C(=O)CC(Sc3nc(C)c4c(n3)CCCC4)C2=O)c1 (configuration not stated)

>  <recorded.number>
-11.6

$$$$
>  <molecule>
COc1cccc(C(=O)OCn2nnc3ccccc3c2=O)c1

>  <recorded.number>
17.1

$$$$

Lab note: each molecule below needs its inhibition filled in.
1. CCN(CC)c1ccc2cc(-c3nc4ccccc4[nH]3)c(=O)oc2c1
2. Cc1cc(Oc2ccccc2)nc(-c2ccccc2)n1

1. 20.9
2. -19.4

====

test.details: endothelial E-selectin expression blockers – imaging, HUVEC, immunofluorescence, MLSMR starter and 10KST1 sets, primary screen (AID 487);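 further: signal is fraction of cell area covered by stained E-selectin grains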
condition.label: HUVEC TNFalpha-induced E-selectin immunofluorescence imaging, at 2 µM; stronger effect = higher value
Values of inhibition greater than or equal to -30% map to criterion met; values below map to criterion not met.

>  <compound>
CC1CN(CC(O)COc2ccccc2C(C)(C)C)CC(C)O1 (stereo unspecified)

>  <qualitative.label>
criterion not met

$$$$
>  <compound>
O=C1C(Cl)=C(NCC2CCCO2)C(=O)N1CCc1ccccc1 (stereo unspecified)

>  <qualitative.label>
criterion met

$$$$
>  <compound>
N=c1c(C(=O)NCc2ccc3c(c2)OCO3)cc2c(=O)n3ccccc3nc2n1Cc1cccnc1

>  <qualitative.label>
criterion met

$$$$

Determine whether this compound has inhibition no lower than -30%: `CCCC(=O)Nc1nc2ccc(S(N)(=O)=O)cc2s1` criterion met

Determine whether this compound has inhibition no lower than -30%: `O=C(CN1CCCN(S(=O)(=O)c2ccc(Br)cc2)CC1)Nc1ccc2c(c1)OCO2` criterion met

Determine whether this compound has inhibition no lower than -30%: `CC(C)(C)Cc1nc(-c2ccccn2)no1` criterion not met

====

test.details: inhibitors of TNFa-induced NFkB p65 translocation, primary screen, imaging, HUVEC, MLSMR starter and 10KST1 sets (AID 438);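 further: compound added about 3h40 before a 20 min TNFalpha stimulation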
condition.label: HUVEC TNFa-induced p65 nuclear translocation; measured here: nuclei count (cytotoxicity indicator), at 2.08 µM
Values of cell count greater than or equal to 600 map to true (1); values below map to false (0).

>  <compound>
CCOCCCNC(=O)Cn1ncc2c(=O)oc3ccccc3c21

>  <qualitative.label>
true (1)

$$$$

Determine whether this compound has cell count no lower than 600: `Clc1ccc(OCc2nc(-c3ccccn3)no2)c(Br)c1` true (1)

Determine whether this compound has cell count no lower than 600: `O=C1c2ccccc2CN1CCNS(=O)(=O)c1ccc(Cl)cc1` false (0)

Determine whether this compound has cell count no lower than 600: `Cc1cc(NC(=O)c2ccc3c(c2)C(=O)N(Cc2cccnc2)C3=O)no1` true (1)

====

For each of the compounds below, state its slope.
measured.on: Alpha-2C adrenergic receptor (Homo sapiens)
test.details: compounds altering alpha2C-coupled GIRK flux – cell-based, HEK293 alpha2C/GIRK1/2, thallium flux, primary screen (AID 624);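 further: slope of fluorescence ratio to pre-addition baseline per second over 15 to 24 s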
condition.label: thallium flux BTC fluorescence, at 10 µM, actives lie on both sides
Active and inactive are the calls of the source.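 The calls were made as follows: active = fluorescence slope after compound addition differing from the mean of all screened samples at 99.7% confidence, in either direction; inactive = the rest.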

Lab note: each compound below needs its slope filled in.
1. CCOc1ccc2[nH]c(=O)c(CN(Cc3nnnn3CCc3ccccc3)CC3CCCO3)cc2c1 (stereo unspecified)
2. O=C(c1ccco1)N1CCN(/C(=N/S(=O)(=O)c2cccs2)c2ccccc2Cl)CC1

1. 0.00465 (inactive)
2. 0.00477 (inactive)

Lab note: each compound below needs its slope filled in.
1. CCC(CO)Nc1ncnc2c1cnn2-c1ccc(Cl)cc1 (stereo unspecified)
2. COc1cc(NS(=O)(=O)N2CCCC2)cc(OC)c1OC
3. O=C(CCN1C(=O)c2ccccc2C1=O)NCCN1CCOCC1

1: 0.00667 (inactive); 2: 0.00502 (inactive); 3: 0.00342 (inactive)

Lab note: each compound below needs its slope filled in.
1. CCOC(=O)C1=C(C)Nc2nnnn2C1c1ccc(OC)c(Br)c1 (stereo unspecified)
2. Cn1c(=O)cc(OCC(=O)NCCCN2CCN(c3cccc(Cl)c3)CC2)c2ccccc21
3. Cc1nc2c(C(=O)O)cnn2c(C)c1Cc1ccccc1F
4. O=C(NCc1cccs1)C1CCN(S(=O)(=O)c2cccs2)CC1
5. O=C(OCC(=O)N1CCc2ccccc21)C1=COCCO1
6. Cc1cc(=O)n2nc(N3CCC(C(=O)N4CCN(Cc5ccccc5)CC4)CC3)sc2n1

1. 0.00761 (inactive)
2. 0.00636 (inactive)
3. 0.00393 (inactive)
4. 0.00617 (inactive)
5. 0.00715 (inactive)
6. 0.00533 (inactive)

====

measured.on: Voltage-gated potassium channel subunit beta-2 (Rattus norvegicus) (UniProt P62483)
Sequence (P62483 whole entry, looked up): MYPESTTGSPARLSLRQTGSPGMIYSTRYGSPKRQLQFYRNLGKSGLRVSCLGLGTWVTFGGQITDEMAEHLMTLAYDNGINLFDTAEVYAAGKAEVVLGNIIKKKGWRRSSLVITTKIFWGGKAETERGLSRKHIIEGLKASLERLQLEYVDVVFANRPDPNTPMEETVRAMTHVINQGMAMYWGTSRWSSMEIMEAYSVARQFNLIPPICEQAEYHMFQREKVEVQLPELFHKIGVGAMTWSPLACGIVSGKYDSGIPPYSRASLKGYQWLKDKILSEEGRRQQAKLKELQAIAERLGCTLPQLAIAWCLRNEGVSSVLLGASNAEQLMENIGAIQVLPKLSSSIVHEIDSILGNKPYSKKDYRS
test.details: inhibitors of rat Kvbeta2 reductase activity – biochemical, NADPH fluorescence, primary screen (AID 622);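 further: slope of raw intensity against log time taken from 70 to 1610 s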
condition.label: recombinant KvBeta, 4-cyanobenzaldehyde reduction, at 10 µM, stronger effect = higher value
measured.quantity: fluorescence slope
One number for each entry.

>  <molecule>
COc1cc(NC(=O)Nc2cccc(Cl)c2)c(OC)cc1NC(=O)CN1CCCCC1

>  <fluorescence slope>
-0.407

$$$$
>  <molecule>
COc1ccc(-c2noc(CN(C(=O)C(C)(C)C)C(C)C)n2)cc1

>  <fluorescence slope>
-0.43

$$$$
>  <molecule>
O=C(Nc1ccncc1)c1cccc(F)c1

>  <fluorescence slope>
-0.375

$$$$

Lab note: each molecule below needs its fluorescence slope filled in.
1. CCOC(=O)C1CCCN(CC(=O)NC2CC2)C1 (stereo unspecified)
2. COc1ccc(CN(C2CCCC2)S(=O)(=O)c2ccc(-n3cnnn3)cc2)cc1OC
3. CCCN(C(=O)CSc1nnc(-c2ccoc2C)n1N)C1CCS(=O)(=O)C1 (stereo unspecified)

[-0.318, -0.57, -0.413]
